- test_details: Phase 1 hepatic impairment study, plasma PK after single oral 20 mg tablet
- Assay type: in vivo, human
- condition_description: both sexes, human, plasma, oral, 20 mg, moderate hepatic impairment; read-out: AUC(0-t), Mean ± SD
- Method: Overall, 36 male and female subjects were enrolled, including 14 subjects with normal hepatic function, 8 subjects with mild stable hepatic impairment (Group 1), 8 subjects with moderate stable hepatic impairment (Group 2), and 6 subjects with severe stable hepatic impairment (Group 3). […] Pharmacokinetic samples were analyzed using a validated liquid chromatography coupled with tandem mass spectrometry assay for paltusotine in human plasma. […]
measure_name: AUC(0-t) (ng·h/mL)

compound="N#Cc1cccc(-c2ccc3ncc(-c4cc(F)cc(F)c4)c(N4CCC(N)CC4)c3c2)c1O [paltusotine]" measure_name=AUC(0-t) measured_result=1580
